assay: Darktoxicity in mouse 4T1 cells assessed as cell viability preincubated for 24 hrs followed by incubation under dark condition for 24 hrs by MTT assay; assay type: toxicity, cell-based; settings: time 48 hrs
Documented CC50 at 24 h across a set of compounds

{"columns": ["CHEM_SMILES", "CC50 at 24 h"],
 "data": [
  ["COC(=O)c1cc2c3ccccc3n(C)c2c(C2=C3C(C)=C(I)C(C)=[N+]3[B-](F)(F)n3c(C)c(I)c(C)c32)n1", "> 100 µM"]
]}

Q: Can you look up the measured CC50 at 24 h of `C=Cc1c(C)c2cc3nc(c(CC(=O)O)c4[nH]c(cc5nc(cc1[nH]2)C(C)=C5CC)c(C)c4C(=O)O)[C@@H](CCC(=O)O)[C@@H]3C` for me?
Result: > 50 µM

====

experiment: Darktoxicity in human MCF7 cells assessed as cell viability preincubated for 24 hrs followed by incubation under dark condition for 24 hrs by MTT assay; type: toxicity, cell-based; conditions: time 48 hrs
PROPERTY: CC50 at 24 h

Q: Can you look up the measured CC50 at 24 h of `COC(=O)c1cc2c3ccccc3n(C)c2c(C2=C3C(C)=C(I)C(C)=[N+]3[B-](F)(F)n3c(C)c(I)c(C)c32)n1` for me?
Result: > 100 µM

Q: Next up: `C=Cc1c(C)c2cc3nc(c(CC(=O)O)c4[nH]c(cc5nc(cc1[nH]2)C(C)=C5CC)c(C)c4C(=O)O)[C@@H](CCC(=O)O)[C@@H]3C`
Result: > 50 µM

Q: Next up: `CC1=C(I)C(C)=[N+]2C1=C(c1nccc3c1[nH]c1ccccc13)c1c(C)c(I)c(C)n1[B-]2(F)F`
Result: > 100 µM

====

test: Darktoxicity in human MDA-MB-231 cells assessed as cell viability preincubated for 24 hrs followed by incubation under dark condition for 24 hrs by MTT assay; assay type: toxicity, cell-based; settings: time 48 hrs
PROPERTY: CC50 at 24 h

{"columns": ["COMPOUND", "VAL"],
 "data": [
  ["COC(=O)c1cc2c3ccccc3n(C)c2c(C2=C3C(C)=C(I)C(C)=[N+]3[B-](F)(F)n3c(C)c(I)c(C)c32)n1", "> 100 µM"],
  ["C=Cc1c(C)c2cc3nc(c(CC(=O)O)c4[nH]c(cc5nc(cc1[nH]2)C(C)=C5CC)c(C)c4C(=O)O)[C@@H](CCC(=O)O)[C@@H]3C [CHLORIN E6]", "> 50 µM"]
]}

Now turn to the next compound.
Q: Can you look up the measured CC50 at 24 h of `CC1=C(I)C(C)=[N+]2C1=C(c1nccc3c1[nH]c1ccccc13)c1c(C)c(I)c(C)n1[B-]2(F)F` for me?
Result: 27.6 µM

====

Documented selectivity ratio across a set of compounds
experiment: Photo selectivity index, ratio of CC50 for darktoxicity in human MDA-MB-231 cells assessed as cell viability preincubated for 24 hrs followed by incubation under dark condition for 24 hrs by MTT assay to IC50 for phototoxicity in human MDA-MB-231 cells assessed as cell viability preincubated for 24 hrs followed by white light irradiation at 20 mW/cm2 for 10 mins and measured after 24 hrs by MTT assay; format: toxicity, cell-based; conditions: read-out: Ratio CC50/IC50

These solved cases illustrate the format of a correct answer.
{"columns": ["CHEM_SMILES", "selectivity ratio"],
 "data": [
  ["C=Cc1c(C)c2cc3nc(c(CC(=O)O)c4[nH]c(cc5nc(cc1[nH]2)C(C)=C5CC)c(C)c4C(=O)O)[C@@H](CCC(=O)O)[C@@H]3C", "> 43"],
  ["CC1=C(I)C(C)=[N+]2C1=C(c1nccc3c1[nH]c1ccccc13)c1c(C)c(I)c(C)n1[B-]2(F)F", 835]
]}

Now turn to the next compound.
Q: Can you look up the measured selectivity ratio of `COC(=O)c1cc2c3ccccc3n(C)c2c(C2=C3C(C)=C(I)C(C)=[N+]3[B-](F)(F)n3c(C)c(I)c(C)c32)n1` for me?
Result: > 9960
